Test system: HL-60(TB)
Experiment: NCI 60 cell assay, leukemia HL-60(TB)
Format: cell-based
Conditions: Homo sapiens, 48 h; HL-60(TB) (leukemia); drug exposure two days, SRB endpoint; read-out: GI-50 value
Method: Samples were tested in the standard National Cancer Institute 60-cell line protocol. First, they were tested against all 60 cell lines in a single final concentration of 10 micromolar. Then, they were separately tested in five 10-fold dilutions. The drug exposure was two days, with an SRB endpoint.
Please note: GI50 exactly at 20 µM is NOT MET. Only values below 20 µM get MET.

compound | targetEntity | cat
CC1=C2[C@@H](CC1)[C@]1(C)O[C@@](c3ccccc3)(C[C@H]1OC(=O)CO)[C@H]2OC(=O)C=Cc1ccccc1 | HL-60(TB) | MET
CC1=C2[C@@H](CC1)[C@]1(C)O[C@@](C3CC3)(C[C@H]1OC(=O)CO)[C@H]2OC(=O)C=Cc1ccccc1 | HL-60(TB) | MET
CC1=C2[C@@H](CC1)[C@]1(C)O[C@@](C(C)C)(C[C@H]1OC(=O)CO)[C@H]2OC(=O)C1CC1c1ccccc1 (stereo partly shown) | HL-60(TB) | MET
CC1=C2[C@@H](CC1)[C@]1(C)O[C@@](C3CCCCC3)(C[C@H]1OC(=O)CO)[C@H]2OC(=O)C=Cc1ccccc1 | HL-60(TB) | MET
CC1=C2[C@@H](CC1)[C@]1(C)O[C@@](C(C)C)(C[C@H]1OC(=O)[C@H](C)O)[C@H]2OC(=O)C=Cc1ccccc1 | HL-60(TB) | MET
CC1=C2[C@@H](CC1)[C@]1(C)O[C@@](C(C)C)(C[C@H]1OC(=O)CO)[C@H]2OC(=O)/C=C/c1ccccc1 | HL-60(TB) | NOT MET
CC(=O)O[C@@H]1C[C@]2(C(C)C)O[C@@]1(C)[C@@H]1CCC(C)=C1[C@@H]2OC(=O)C=Cc1ccccc1 | HL-60(TB) | NOT MET
